# Assay: clinical
# Measurement Context: human, in vivo, po

| Structure | Tmax |
| --- | --- |
| Cn1c(=O)c2c(ncn2C)n(C)c1=O | ~2 h |

---

# Assay: clinical
# Measurement Context: human, in vivo, po

| Structure | Tmax |
| --- | --- |
| CC(=O)Nc1ccc(O)cc1 | ~30 min |
